The entries below come with measured growth values attached.
Tested on: MCF7 breast
Assay: NCI-60 one-dose screen, 48 h (100 = growth as untreated, 0 = no growth, -100 = all killed)
Conditions: 10 µM unless noted
Compounds without any hit were thinned out: in the full panel of roughly 83,000, 20% have a hit.
Numeric only. Scale: %

Study these solved cases before continuing.
NC(=O)CN1C(=O)c2ccccc2C1=O	95.3
COc1ccc(C(C)c2cc(OC)c(OC)c(OC)c2)cc1 (stereo not drawn)	13.8
Cc1cnc(-c2ccc(-c3ccc(NC(=O)Nc4c(F)cc(F)cc4F)cc3F)c3c2C(=O)NC3)[nH]1	22.1
N#Cc1c(NC(=O)c2cccs2)[n+]([O-])c2cc(C(F)(F)F)ccc2[n+]1[O-]	98.7
O=C(O)c1cn(C2CC2)c2cc(N3CCN(Cc4nnc(Nc5ccccc5)o4)CC3)c(F)cc2c1=O	97.7
C=C(C)[C@@H]1CC[C@]2(C(=O)O)CC[C@]3(C)[C@H](CC[C@@H]4[C@@]5(C)C[C@@H](CC#Cc6ccc(Cl)cc6)C(=O)C(C)(C)[C@@H]5CC[C@]43C)[C@@H]12	36.3
O=C(O)CCNC1CCCCC1	87.5

The record that follows has no growth shown yet.
Value wanted: growth (MCF7 breast) of entry `Cc1c(O)c(=O)ccn1-c1nc2ccccc2s1`
98.6
